Numbers sourced from patent US9738676B2.

Molecular target: hERG channel (Homo sapiens (Human), UniProt Q12809)
Sequence (Q12809 whole entry): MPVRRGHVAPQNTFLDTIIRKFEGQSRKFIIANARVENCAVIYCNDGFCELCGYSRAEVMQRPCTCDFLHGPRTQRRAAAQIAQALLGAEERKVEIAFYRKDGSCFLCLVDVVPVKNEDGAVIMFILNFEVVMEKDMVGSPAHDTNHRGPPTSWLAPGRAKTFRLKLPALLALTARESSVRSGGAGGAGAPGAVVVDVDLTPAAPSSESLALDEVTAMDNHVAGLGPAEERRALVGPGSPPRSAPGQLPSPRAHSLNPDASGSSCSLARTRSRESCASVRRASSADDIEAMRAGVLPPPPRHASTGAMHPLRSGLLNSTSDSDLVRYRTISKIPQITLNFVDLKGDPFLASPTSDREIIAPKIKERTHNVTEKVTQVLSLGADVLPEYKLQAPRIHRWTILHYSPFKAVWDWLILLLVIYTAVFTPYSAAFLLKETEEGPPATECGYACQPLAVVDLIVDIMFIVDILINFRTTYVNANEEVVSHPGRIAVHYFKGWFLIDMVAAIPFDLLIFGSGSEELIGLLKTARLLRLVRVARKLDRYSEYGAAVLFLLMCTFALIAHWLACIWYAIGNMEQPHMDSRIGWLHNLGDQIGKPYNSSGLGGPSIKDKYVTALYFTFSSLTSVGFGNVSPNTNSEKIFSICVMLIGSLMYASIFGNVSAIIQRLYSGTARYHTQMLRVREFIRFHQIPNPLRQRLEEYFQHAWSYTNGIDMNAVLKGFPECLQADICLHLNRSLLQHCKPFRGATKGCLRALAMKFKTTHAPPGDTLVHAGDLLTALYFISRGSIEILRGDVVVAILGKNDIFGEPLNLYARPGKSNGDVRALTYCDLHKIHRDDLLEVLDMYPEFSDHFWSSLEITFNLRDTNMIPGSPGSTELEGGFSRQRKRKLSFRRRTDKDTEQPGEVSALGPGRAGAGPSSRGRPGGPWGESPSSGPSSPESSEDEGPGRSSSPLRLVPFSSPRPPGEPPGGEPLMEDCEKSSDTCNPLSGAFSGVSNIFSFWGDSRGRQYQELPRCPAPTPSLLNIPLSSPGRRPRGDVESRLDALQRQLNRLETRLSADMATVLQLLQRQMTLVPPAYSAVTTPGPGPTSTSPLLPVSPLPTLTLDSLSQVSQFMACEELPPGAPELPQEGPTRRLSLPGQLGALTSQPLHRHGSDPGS
Test: Blocking of hERG channel, whole-cell patch clamp in stably transfected HEK 293 cells
Format: cell-based
Conditions: 10 μM; HEK 293 cells
Measured Blocking of hERG @ 10 μM (% remaining tail current) accompanies every entry in the list below.
Please state the figure in %; there is no need to write the unit.

# COMPOUND, UNIT ABBREVIATION, MEAS VALUE
records = [
    ("CC[C@H]1OC(=O)[C@H](C)[C@@H](O)[C@H](C)[C@@H](O[C@@H]2O[C@H](C)C[C@H](N(C)C(=O)N3CCOCC3)[C@H]2O)[C@](C)(OC)C[C@@H](C)C(=O)[C@H](C)[C@H]2C(SCCN(Cc3c(Cl)cncc3Cl)c3ccc(OC)c(OC4CCCC4)c3)C(=O)O[C@@]21C (stereo in doubt) [compound of formula (I)]", "%", 98),
    ("CC[C@H]1OC(=O)[C@H](C)[C@@H](O[C@H]2C[C@@](C)(OC)[C@@H](O)[C@H](C)O2)[C@H](C)[C@@H](O[C@@H]2O[C@H](C)C[C@H](N(C)C(=O)N3CCOCC3)[C@H]2O)[C@](C)(OC)C[C@@H](C)C(=O)[C@H](C)[C@H]2N(CCCOc3cc(C(=O)Nc4c(Cl)cncc4Cl)ccc3OC)C(=O)O[C@]12C [Example 2 of WO2001/018510]", "%", 84),
]

// next item, Blocking of hERG @ 10 μM (% remaining tail current) requested
Query string: Fill in: Blocking of hERG @ 10 μM (% remaining tail current) of CC[C@H]1OC(=O)[C@H](C)[C@@H](O[C@H]2C[C@@](C)(OC)[C@@H](O)[C@H](C)O2)[C@H](C)[C@@H](O[C@@H]2O[C@H](C)C[C@H](N(C)C(=O)N3CCOCC3)[C@H]2O)[C@](C)(OC)C[C@@H](C)C(=O)[C@H](C)[C@H]2[C@H](SCCN(Cc3c(Cl)cncc3Cl)c3ccc(OC)c(OC4CCCC4)c3)C(=O)O[C@@]21C is ___
Result string: 82.9
